Biological target: T1, recombinant hIL1RAP Domain1+2+3 (aa21-367) (human, UniProt Q9NPH3 21-367)
T1 construct: Numbering on Uniprot Q9NPH3
T1 sequence (looked up): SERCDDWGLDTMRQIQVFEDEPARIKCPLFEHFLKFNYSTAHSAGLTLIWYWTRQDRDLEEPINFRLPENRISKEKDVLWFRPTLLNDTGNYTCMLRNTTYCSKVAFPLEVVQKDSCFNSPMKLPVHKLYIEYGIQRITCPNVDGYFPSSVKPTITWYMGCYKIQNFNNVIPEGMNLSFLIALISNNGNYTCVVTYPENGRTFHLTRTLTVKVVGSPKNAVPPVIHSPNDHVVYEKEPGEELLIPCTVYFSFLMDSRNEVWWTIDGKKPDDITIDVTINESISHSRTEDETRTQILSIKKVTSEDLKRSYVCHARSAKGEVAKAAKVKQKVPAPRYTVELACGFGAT
Experiment: bio-layer interferometry, human IL1RAP
experimental_readout: pKd
Scale: negative log10 of molar concentration, which is what pKd denotes.

What value of pKd has been reported for the following binder? h48D2 VH5:VL4 (antibody, human IgG1, kappa, L234A L235A, V domains shown, Humanized; also called VL4:VH5; humanized 48D2 variant VH5:VL4) VH: QEQLEESGGGLVKPGGTLSLTCTVSGPSLSHFDITWIRQAPGSGLEWIGTISPGVSTYYASWAKSRVTISVDTSLNTVSLKLSSVTAADTATYFCARGGVGSSWKAFDLWGPGTLVTISS VL: ELVMTQSPSSVSASVGDRVTITCQASESISTALAWYQQKPGKAPKLLIYKASTLPSGVPSRFSGSGSGTDFTLTINSLQPEDFATYYCQQGFSSGNVHNAFGGGTKVEIKR
8.78

What value of pKd has been reported for the following binder? h48D2 VH2:VL4 (antibody, human IgG1, kappa, L234A L235A, V domains shown, Humanized; also called VL4:VH2) VH: EVQLVESGGALVQPGGSLRLSCIVSGPSLSHFDITWFRQAPGKGLEWVATISPGVSTYYASWAKSRFTISTDTSKNTLFLQMDSLRAEDTAVYYCARGGVGSSWKAFDLWGPGTLVTVSS VL: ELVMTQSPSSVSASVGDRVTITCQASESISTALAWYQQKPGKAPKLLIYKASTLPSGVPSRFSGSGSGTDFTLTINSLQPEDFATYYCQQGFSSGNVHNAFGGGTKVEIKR
7.95

What value of pKd has been reported for the following binder? h48D2 VH3:VL5 (antibody, human IgG1, kappa, L234A L235A, V domains shown, Humanized; also called VL5:VH3) VH: EVQLLESGGGLVLPGGSLRLSCAASGPSLSHFDITWVRQAPGKGLEWVSTISPGVSTYYASWAKSRFTISRDNSKNTLYLQMSSLRAEDTAVYYCARGGVGSSWKAFDLWGLGTTVTVSS VL: APVLTQSPATLEASVGDRVTITCQASESISTALAWYQQKPGQPPKLLIYKASTLPSGVPSRFSGSGSGTEFTLTISDLESDDAATYYCQQGFSSGNVHNAFGGGTEVVVKR
7.46
